This collection of values is drawn from patent US6919350B2.

Quick reference: pIC50 of the listed items.
ASSAYED SYSTEM: delta opioid receptor (Rattus norvegicus)
Construct: Rat (Sprague-Dawley) brain membranes were prepared; from tissue; host or cells: rat (Sprague-Dawley) brain membranes
Sequence (P33533 whole entry): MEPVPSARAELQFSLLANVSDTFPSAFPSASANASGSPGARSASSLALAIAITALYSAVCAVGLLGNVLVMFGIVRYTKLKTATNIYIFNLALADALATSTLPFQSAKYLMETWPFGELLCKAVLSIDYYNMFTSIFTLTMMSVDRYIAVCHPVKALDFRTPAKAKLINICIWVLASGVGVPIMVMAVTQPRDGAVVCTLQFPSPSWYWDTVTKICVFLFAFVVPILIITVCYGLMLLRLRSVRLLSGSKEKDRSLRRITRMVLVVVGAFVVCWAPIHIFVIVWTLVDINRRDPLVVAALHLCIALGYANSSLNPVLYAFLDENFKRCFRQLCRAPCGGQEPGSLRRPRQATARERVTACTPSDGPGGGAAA
PROCEDURE TEXT: Delta receptor binding in rat brain membranes (Delta Receptor IC50)
DETAILS: rat brain membranes; radioligand 3H-[D-Pen2,D-Pen5]-(enkephalin) 0.1 nM; read-out: Delta Receptor IC50
Just the number, please; pIC50 means minus log10 of the concentration in mol/L.

// fetch pIC50 given entry C=CCN1[C@H](C)CN(C(c2ccc(C(=O)N(CC)CC)cc2)c2cccc(O)c2)C[C@@H]1C (mixture of isomers)
8.48

// fetch pIC50 given entry C=CCN1C[C@@H](C)N([C@H](c2ccc(S(=O)(=O)N(C)C)cc2)c2cccc(O)c2)C[C@@H]1C (relative stereo)
8.59

// fetch pIC50 given entry `CCN(C)C(=O)c1ccc([C@H](c2cccc(O)c2)N2C[C@H](C)N(C)C[C@@H]2C)cc1`
8.51

// fetch pIC50 given entry CCN(CC)C(=O)c1ccc([C@H](c2cccc(O)c2)N2C[C@H](C)N(C)C[C@H]2C)cc1 (relative stereo)
8.96
